# credit: patent US20250250357A1

// reported competition rate per item
target: T1, human MSLN-FL-his protein (human, UniProt Q13421 296-580); assay: competitive ELISA; row F8-32.3; note: test concentration or dose not given here
T1 construct: made in HEK293E cells, purified on nickel column; also called hMSLN-FL-his; human MSLN full-length protein; not shown: His tag
T1 sequence (Q13421 other isoform, or with tags, fused parts or gaps): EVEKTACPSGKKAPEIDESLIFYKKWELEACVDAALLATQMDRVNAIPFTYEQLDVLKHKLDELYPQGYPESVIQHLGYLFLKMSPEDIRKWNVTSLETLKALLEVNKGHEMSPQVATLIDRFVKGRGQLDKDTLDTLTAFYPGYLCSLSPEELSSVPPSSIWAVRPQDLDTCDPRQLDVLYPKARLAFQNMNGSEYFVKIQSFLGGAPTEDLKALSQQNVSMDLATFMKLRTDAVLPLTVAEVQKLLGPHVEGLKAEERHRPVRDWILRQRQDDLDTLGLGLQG
Kindly provide the numeric value in % only, without the unit symbol.

Example results:
{"columns": ["Binder", "competition rate / %"],
 "data": [
  ["S009-F8-36.12 (antibody, human IgG1, kappa, V domains shown, human-murine chimeric antibody, human IgG1/kappa constant regions) VH: EVQLQQSGPELVKPGASVKISCKASGYTFTDYYMNWVKQSHGKSLEWIGDINPNNGGTSYNQKFKGKATLTVDKSSSTAYMELRSLTSEDSAVYYCASWGYGSSSRGYFDYWGQGTTLTVSS VL: QIVLSQSPAILSASPGEKVTMTCRASSSVSYMHWYQQKPGSSPKPWIYATSNLASGVPARFSGSGSGTSYSLTISRVEAEDAATYYCQQWSSNPWTFGGGTKLEIKR", 9.8],
  ["S009-F8-22.23 (antibody, human IgG1, kappa, V domains shown, human-murine chimeric antibody, human IgG1/kappa constant regions) VH: QVQLKQSGPGLVQPSQSLSITCTVSGFSLFSYGVHWVRQSPGKGLEWLGVIWSGGSTDYNAAFISRLSISKDNSKSQVFFKMNSLQADDTAMYYCARNGGSMITTLYYAMDYWGQGTSVTVSS VL: DVVMTQTPLSLPVSLGDQASISCRSSQSLVHSYGNTYLHWYLQKPGQSPKLLIYKVSNRFSGVPDRFSGSGSGTDFTLKISRVEAEDLGVYFCSQSTHIPFTFGGGTKLEIKR", 85.4]
]}

# competition rate (binder: S009-F8-24.14 (antibody, human IgG1, kappa, V domains shown, human-murine chimeric antibody, human IgG1/kappa constant regions) VH: EFQLQQSGPELVKPGASVKISCKASGYSFTDYNMNWVKLSNGKSLEWIGVIIPNYGTSSYNQKFKGKATLTVDQSSSTAYMQLNSLTSEDSAVYYCARWDNYYGSSLDYWGQGTTLTVSS VL: DIVMTQSQKFMSTTVGDRVSITCKASQNVGTAVAWYQQKPGQSPKLLIYSASNRYTGVPDRFTGSGSGTDFILTISNMQSEDLADYFCQQYSSYPLTFGAGTKLELKR ) is 57.6

Form: binder = S009-F8-28.23 (antibody, human IgG1, kappa, V domains shown, human-murine chimeric antibody, human IgG1/kappa constant regions) VH: EVQLVESGGDLVKPGGSLKLSCAASGFTFSSYAMSWVRQTPEKRLEWVATISDGGSYTYYPDNVEGRFTISRDNAKNNLYLQMSHLKSEDTAMYYCAGDRGYSYALDYWGQGTSVTVSS VL: NIMMTQSPSSLAVSAGEKVTMSCKSSQSVLYSSNQKNYLAWYQQKPGQSPKLLIYWASTRESGVPDRFTGSGSGTDFTLTISSVQAEDLAVYYCHQYLSSLTFGAGTKLELKR ; competition rate = 22.9

Per the record, S009-F8-29.1 (antibody, human IgG1, kappa, V domains shown, human-murine chimeric antibody, human IgG1/kappa constant regions) VH: QVQLQQSGAELARPGASVKMSCKASGYTFISYTMHWVKQRPGQGLEWIGYINPSSGYTKYNQKFKDKATLTADKSSSTAYMQLNSLTSEDSAVYYCARYYSNPDYYAMDYWGQGTSVTVSS VL: QIVLTQSPAIMSASPGEKVTITCSASSSVSYMHWFQQKPGTSPKLWIYSTSNLASGVPARFSGSGSGTSYSLTISRMEAEDAATYYCQQRSSYPLTFGGGTKLELKR has competition rate of 75.8
